# assay-target: hAhR (Homo sapiens, UniProt P35869)
# Construct: Stably integrated DRE-luciferase cell lines were generated by transducing the both cell lines with Cignal XRE luciferase reporter (Qiagen) lentiviral particles; endogenous in cells
# assay-remarks: AhR DRE-luciferase reporter transcriptional assay, antagonist mode (TCDD-induced)
# applied-conditions: HEPG2 DRE-Luc cells, 3 nM TCDD, 24 hour incubation, relative IC50
Listing of recorded IC50 by entry.

Some compounds with known IC50 results, for comparison:
record_smiles=Cc1cc(-c2ccc3cc(F)cc(Cl)c3n2)ccc1NC(=O)c1ccnn1C test_value="200 to 500 nM"
record_smiles=Cn1nccc1C(=O)Nc1ccc(-c2ccc3cc(F)ccc3n2)cc1OC(F)(F)F test_value="1000 to 10000 nM"
record_smiles=COc1cnccc1C(=O)N(C)c1ccc(-c2ncc3cc(C(F)(F)F)ccc3n2)cc1C test_value="< 200 nM"
record_smiles=Cc1cc(-c2ncc3cc(C(F)(F)F)ccc3n2)ccc1N(C)C(=O)c1ccncc1 test_value="< 200 nM"

Looking up `Cc1cc(-c2ncc3nc(C(F)(F)F)cc(C)c3n2)ccc1NC(=O)c1ccnc(C(N)=O)c1` , I found its IC50 recorded as < 200 nM

Given item `Cc1cc(-c2ccc3cc(F)ccc3n2)ccc1NC(=O)c1cncn1C` , the value recorded as its IC50 is 500 to 1000 nM

Item: `Cc1cc(-c2ccc3cc(N)ccc3n2)ccc1NC(=O)c1ccnn1C` | IC50: 1000 to 10000 nM

For record `Cn1nccc1C(=O)Nc1ccc(-c2ccc3cc(C(F)(F)F)ccc3n2)cc1F` the listed IC50 is 200 to 500 nM

Just so you know, measured IC50 for `Cc1cc(-c2ncc3cc(C(F)(F)F)ccc3n2)ccc1N(C)C(=O)c1ccnn1Cc1nnn[nH]1` came out at 1000 to 10000 nM

`C#Cc1ccc2nc(-c3ccc(NC(=O)c4ccnn4C)c(C)c3)ccc2c1` yielded IC50 of 200 to 500 nM

Measured IC50 of `Cn1nccc1C(=O)Nc1ccc(-c2cnc3ccccc3n2)cc1` : 500 to 1000 nM

---

Items are presented alongside their recorded IC50.
# assay-target: hAhR (Homo sapiens)
# Construct: Stably integrated DRE-luciferase cell lines were generated by transducing the both cell lines with Cignal XRE luciferase reporter (Qiagen) lentiviral particles; endogenous in cells
# Sequence (P35869 11-848): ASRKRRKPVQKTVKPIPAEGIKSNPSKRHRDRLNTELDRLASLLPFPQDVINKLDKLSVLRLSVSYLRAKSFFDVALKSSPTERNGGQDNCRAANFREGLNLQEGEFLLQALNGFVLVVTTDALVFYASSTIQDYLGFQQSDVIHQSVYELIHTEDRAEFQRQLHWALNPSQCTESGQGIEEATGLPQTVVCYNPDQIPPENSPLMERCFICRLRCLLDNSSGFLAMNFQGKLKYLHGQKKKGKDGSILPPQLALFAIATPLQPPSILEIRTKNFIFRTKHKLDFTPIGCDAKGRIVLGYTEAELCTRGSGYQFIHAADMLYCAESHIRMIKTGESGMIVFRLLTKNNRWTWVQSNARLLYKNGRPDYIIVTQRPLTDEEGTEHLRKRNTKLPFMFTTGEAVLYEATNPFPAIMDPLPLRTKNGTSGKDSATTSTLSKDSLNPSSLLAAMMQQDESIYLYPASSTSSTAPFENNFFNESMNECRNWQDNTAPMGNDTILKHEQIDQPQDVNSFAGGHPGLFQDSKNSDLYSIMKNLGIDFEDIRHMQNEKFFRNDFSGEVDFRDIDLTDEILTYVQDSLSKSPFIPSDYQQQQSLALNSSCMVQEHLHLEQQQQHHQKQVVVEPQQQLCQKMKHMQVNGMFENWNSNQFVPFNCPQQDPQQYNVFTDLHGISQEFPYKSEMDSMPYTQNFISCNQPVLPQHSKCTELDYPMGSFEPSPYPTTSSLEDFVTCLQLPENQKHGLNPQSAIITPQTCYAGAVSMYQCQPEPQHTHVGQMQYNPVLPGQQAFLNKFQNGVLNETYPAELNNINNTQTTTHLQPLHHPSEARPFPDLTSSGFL
# assay-remarks: AhR DRE-luciferase reporter transcriptional assay, antagonist mode (TCDD-induced)
# applied-conditions: HEPG2 DRE-Luc cells, 3 nM TCDD, 24 hour incubation, relative IC50

compound="Cc1cc(C(=O)N(C)c2ccc(-c3ncc4cc(C(F)(F)F)ccc4n3)cc2C)ccn1 [Example 120]" property_name=IC50 test_value="< 0.2 µM"

Just so you know, measured IC50 for Cc1cc(-c2ccc3cncc(C)c3n2)ccc1NC(=O)c1ccnn1C [Example 059] came out at 0.2 to 0.5 µM

So, Cc1cc(-c2ncc3cc(C(F)(F)F)ccc3n2)ccc1N(C)C(=O)c1ncc[nH]1 [Example 132] ? Its IC50 was < 0.2 µM

The value of IC50 measured for the compound COc1cnccc1C(=O)Nc1ccc(-c2ncc3cc(C(F)(F)F)ccc3n2)cc1C [Example 144] turned out to be < 0.2 µM

Please fill in: IC50 reported for Cc1cc(-c2ncc3cc(C(F)(F)F)ccc3n2)ccc1N(C)C(=O)c1ccnc(C(N)=O)c1 [Example 152] = < 0.2 µM

Briefly, IC50 measured for Cc1cc(-c2ccc3ccc(F)cc3n2)ccc1NC(=O)c1ccnn1C [Example 019] : 0.2 to 0.5 µM

IC50 recorded for this compound, Cc1cc(-c2ccc3cc(C(F)(F)F)cc(C)c3n2)ccc1N(C)C(=O)c1ccnn1C [Example 202] , is < 0.2 µM
